assayed target: Adenosine deaminase (Bos taurus, UniProt P56658)
Sequence (P56658 whole entry): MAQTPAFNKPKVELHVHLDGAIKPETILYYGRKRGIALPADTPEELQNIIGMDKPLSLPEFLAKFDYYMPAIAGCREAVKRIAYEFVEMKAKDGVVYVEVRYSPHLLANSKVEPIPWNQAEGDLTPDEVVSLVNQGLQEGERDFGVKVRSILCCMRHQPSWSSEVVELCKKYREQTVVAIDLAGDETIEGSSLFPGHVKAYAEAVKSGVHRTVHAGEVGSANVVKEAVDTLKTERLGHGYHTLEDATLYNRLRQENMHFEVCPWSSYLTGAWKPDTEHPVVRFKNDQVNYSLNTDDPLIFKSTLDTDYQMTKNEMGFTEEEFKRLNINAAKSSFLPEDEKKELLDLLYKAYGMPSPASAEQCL
assay notes: Inhibition of calf intestinal adenosine deaminase
pKi: −log10 of the molar value.
Below, each entry is listed with its recorded pKi.

{"compound": "CCCCCCC(C(C)O)n1cnc(C(N)=O)c1N (stereo not drawn)", "assayed target": "Adenosine deaminase (Bos taurus, UniProt P56658)", "pKi": 5.98}
{"compound": "CCCCCCC(C(C)O)n1cnc(C(=O)NCCC)c1 (stereo not drawn)", "assayed target": "Adenosine deaminase (Bos taurus, UniProt P56658)", "pKi": 4.80}
{"compound": "Nc1cccc2c1ncn2C1O[C@H](CO)[C@@H](O)[C@H]1O (stereo partly drawn)", "assayed target": "Adenosine deaminase (Bos taurus, UniProt P56658)", "pKi": 3.96}
{"compound": "CCCCCCC(C(C)O)n1cnc(C(=O)NC[C@@H](C)O)c1 (stereo partly drawn)", "assayed target": "Adenosine deaminase (Bos taurus, UniProt P56658)", "pKi": 4.49}
{"compound": "CCCCCCC(C(C)O)n1cnc(CO)c1 (stereo not drawn)", "assayed target": "Adenosine deaminase (Bos taurus, UniProt P56658)", "pKi": 5.60}
{"compound": "CCCCCCC(C(C)O)n1cnc(C(=O)NCCO)c1 (stereo not drawn)", "assayed target": "Adenosine deaminase (Bos taurus, UniProt P56658)", "pKi": 6.03}
{"compound": "CCCCCCC(C(C)O)n1cnc(C(=O)NCC)c1 (stereo not drawn)", "assayed target": "Adenosine deaminase (Bos taurus, UniProt P56658)", "pKi": 4.75}
{"compound": "CCCCCCC(C(C)O)n1cnc(C(=O)OCC)c1 (stereo not drawn)", "assayed target": "Adenosine deaminase (Bos taurus, UniProt P56658)", "pKi": 4.18}

Data provenance: ChEMBL document CHEMBL1125631
